- System: Caspase 3
- method: Caspase 3 detection assay in SJSA1 cells
- Assay type: cell-based
- measurement_conditions: 0.3 μM, SJSA1, 48 h, Caspase 3 activation over DMSO-treated cells
Bridge positions count the residues as written; N and C are the ends. Square brackets hold non-standard residues; d marks the D form. Peptide text beside a SMILES is read from it. R8 = C=CCCCCCC[C@@](C)(N)C(=O)O; S5 = C=CCCC[C@](C)(N)C(=O)O
quantity_name: caspase 0.3 μM

compound: CC(=O)N[C@@H](CCC(=O)O)C(=O)N[C@H](C(=O)N[C@@H](Cc1ccccc1)C(=O)N[C@]1(C)CCCCCCC=CCCC[C@@](C)(C(=O)N[C@@H](CO)C(=O)N[C@H](C(=O)N[C@@H](CO)C(N)=O)C(C)C)NC(=O)[C@H](CC(C)C)NC(=O)[C@H](CCC(N)=O)NC(=O)[C@H](C)NC(=O)[C@H](Cc2c[nH]c3ccccc23)NC(=O)[C@H](Cc2ccc(O)cc2)NC(=O)[C@H](C(C)C)NC1=O)[C@@H](C)O [compound 130] (Ac-ETF[R8]VYWAQL[S5]SVS-NH2; staple 4-11)
quantity_name: caspase 0.3 μM
measured: 1
//
compound: CC(=O)N[C@@H](CCC(=O)O)C(=O)N[C@H](C(=O)N[C@@H](Cc1ccccc1)C(=O)N[C@]1(C)CCCCCCC=CCCC[C@@](C)(C(=O)N[C@@H](CO)C(=O)N[C@@H](CC(C)C)C(=O)N[C@@H](C)C(N)=O)NC(=O)[C@H](CC(C)C)NC(=O)[C@H](CCC(N)=O)NC(=O)[C@H](C)NC(=O)[C@H](Cc2c[nH]c3ccccc23)NC(=O)[C@H](Cc2ccc(O)cc2)NC(=O)[C@H](C(C)C)NC1=O)[C@@H](C)O [compound 127] (Ac-ETF[R8]VYWAQL[S5]SLA-NH2; staple 4-11)
quantity_name: caspase 0.3 μM
measured: 1

---

- Test system: Caspase 3
- method: Caspase 3 detection assay in SJSA1 cells
- Format: cell-based
- measurement_conditions: 0.3 μM, SJSA1, 48 h, Caspase 3 activation over DMSO-treated cells
Bridge positions count the residues as written; N and C are the ends. Square brackets hold non-standard residues; d marks the D form. Peptide text beside a SMILES is read from it. Phe(3,4-F2) = N[C@@H](Cc1ccc(F)c(F)c1)C(=O)O; R8 = C=CCCCCCC[C@@](C)(N)C(=O)O; Cba = N[C@@H](CC1CCC1)C(=O)O; S5 = C=CCCC[C@](C)(N)C(=O)O; Nle = CCCC[C@H](N)C(=O)O
quantity_name: caspase 0.3 μM

compound: CCCC[C@H](NC(=O)[C@H](C)NC(=O)[C@H](CO)NC(=O)[C@]1(C)CCCC=CCCCCCC[C@@](C)(NC(=O)[C@H](Cc2ccc(F)c(F)c2)NC(=O)[C@@H](NC(=O)[C@H](CC(C)C)NC(C)=O)[C@@H](C)O)C(=O)N[C@@H](CCC(=O)O)C(=O)N[C@@H](Cc2ccc(O)cc2)C(=O)N[C@@H](Cc2c[nH]c3ccccc23)C(=O)N[C@@H](C)C(=O)N[C@@H](CCC(N)=O)C(=O)N[C@@H](CC2CCC2)C(=O)N1)C(=O)N[C@@H](C)C(N)=O [compound 243] (Ac-LT[Phe(3,4-F2)][R8]EYWAQ[Cba][S5]SA[Nle]A-NH2; staple 4-11)
measured: 1
//
compound: CC(=O)N[C@@H](CC(C)C)C(=O)N[C@H](C(=O)N[C@@H](Cc1ccc(F)c(F)c1)C(=O)N[C@]1(C)CCCCCC/C=C/CCC[C@@](C)(C(=O)N[C@@H](CO)C(=O)N[C@@H](C)C(=O)N[C@@H](C)C(N)=O)NC(=O)[C@H](CCC(C)C)NC(=O)[C@H](CCC(N)=O)NC(=O)[C@H](C)NC(=O)[C@H](Cc2c[nH]c3ccccc23)NC(=O)[C@H](Cc2ccc(O)cc2)NC(=O)[C@H](CCC(=O)O)NC1=O)[C@@H](C)O [compound 160]
measured: 2
